FYI, the data here is from paper PMC4010497.

# experimental target: human GABAA receptor α1, β2 and γ2 (CHO-K1 cells) (Homo sapiens, UniProt P14867+P18507+P47870)
# Construct: expressed in transfected cells; host or cells: CHO-K1 cells, stably transfected
# Sequence (P14867 28-456): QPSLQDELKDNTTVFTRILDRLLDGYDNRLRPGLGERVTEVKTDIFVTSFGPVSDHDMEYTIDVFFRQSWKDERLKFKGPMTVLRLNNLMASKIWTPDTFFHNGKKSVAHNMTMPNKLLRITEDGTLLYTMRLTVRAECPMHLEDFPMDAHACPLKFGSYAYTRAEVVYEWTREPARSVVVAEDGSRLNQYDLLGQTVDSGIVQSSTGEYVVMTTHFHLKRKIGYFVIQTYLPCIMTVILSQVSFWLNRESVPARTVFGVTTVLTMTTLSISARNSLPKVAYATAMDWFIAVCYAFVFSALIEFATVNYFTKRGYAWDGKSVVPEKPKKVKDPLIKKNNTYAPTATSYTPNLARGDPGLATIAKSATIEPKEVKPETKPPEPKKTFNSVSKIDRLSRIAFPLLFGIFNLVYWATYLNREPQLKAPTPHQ
# Sequence (P47870 25-512 limits assumed): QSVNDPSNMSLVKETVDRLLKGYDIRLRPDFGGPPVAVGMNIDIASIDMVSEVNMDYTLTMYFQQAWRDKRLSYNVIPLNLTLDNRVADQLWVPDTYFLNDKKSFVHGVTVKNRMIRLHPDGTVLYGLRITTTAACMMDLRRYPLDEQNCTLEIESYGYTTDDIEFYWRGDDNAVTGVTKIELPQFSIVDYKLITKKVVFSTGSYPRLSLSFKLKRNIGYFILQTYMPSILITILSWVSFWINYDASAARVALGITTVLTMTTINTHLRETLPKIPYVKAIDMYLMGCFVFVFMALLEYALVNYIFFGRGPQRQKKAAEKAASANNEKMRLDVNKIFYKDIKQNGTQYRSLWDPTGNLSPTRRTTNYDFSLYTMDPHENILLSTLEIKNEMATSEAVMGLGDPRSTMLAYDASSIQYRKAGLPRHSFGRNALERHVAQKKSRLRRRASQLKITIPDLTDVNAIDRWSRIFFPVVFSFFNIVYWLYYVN
# Sequence (P18507 40-475): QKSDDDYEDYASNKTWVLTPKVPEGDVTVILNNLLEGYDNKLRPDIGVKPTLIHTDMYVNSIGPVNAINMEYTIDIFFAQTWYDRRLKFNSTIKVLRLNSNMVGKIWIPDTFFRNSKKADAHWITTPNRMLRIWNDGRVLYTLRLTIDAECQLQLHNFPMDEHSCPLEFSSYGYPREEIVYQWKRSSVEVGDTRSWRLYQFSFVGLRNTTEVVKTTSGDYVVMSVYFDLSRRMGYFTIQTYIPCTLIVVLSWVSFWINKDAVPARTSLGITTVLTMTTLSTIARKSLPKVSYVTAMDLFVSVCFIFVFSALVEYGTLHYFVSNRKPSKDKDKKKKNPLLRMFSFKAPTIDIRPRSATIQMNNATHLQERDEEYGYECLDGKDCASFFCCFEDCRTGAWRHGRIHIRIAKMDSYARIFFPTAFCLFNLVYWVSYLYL
# assay details: cell-based
# condition parameters: GABAA (α1β2γ2) CHO-K1 cell, patch clamp; read-out: EC50, potentiation of EC20 muscimol evoked chloride currents
endpoint label: pEC50
Scale: negative log10 of molar concentration, which is what pEC50 denotes.

# return recorded pEC50 for entry CCCOC(=O)Cc1ccc(OCC(=O)N(CC)CC)c(OC)c1
4.60

Specify measured pEC50 for CCOc1cc(CC(=O)OCC(F)(F)F)ccc1OCC(=O)N(CC)CC .
4.92
